Attribution: patent US11051515B2

- Test system: SETVI
- protocol_text: Post-emergence action against SETVI
- Type: in vivo, Setaria viridis
- measurement_conditions: Setaria viridis, 504 h; post-emergence, dosage 80 g/ha, visual assessment about 3 weeks after treatment vs untreated controls; read-out: Post-emergence action against SETVI (herbicidal action in percent)
measurement_label: pest or weed control at 80 g/ha
Please state the value followed by its unit.

# count of solved cases: 3
{"smiles_repr": "CC(=O)c1c(S(C)(=O)=O)ccc(C(=O)Nc2nnnn2C)c1Cl", "pest or weed control at 80 g/ha": "80%"}
{"smiles_repr": "Cn1nnnc1NC(=O)c1ccc(C(F)(F)F)c(C(=O)C2CC2)c1Cl", "pest or weed control at 80 g/ha": "100%"}
{"smiles_repr": "Cn1nnnc1NC(=O)c1ccc(C(F)(F)F)c(C(=O)C2CC2)c1C1CC1", "pest or weed control at 80 g/ha": "90%"}

# batch size: 7; output pest or weed control at 80 g/ha per entry
1. CC(=O)c1c(C(F)F)ccc(C(=O)Nc2nnnn2C)c1Cl
2. CC(C)C(=O)c1c(Cl)ccc(C(=O)Nc2nnnn2C)c1Cl
3. Cc1c(C(=O)Nc2nnnn2C)ccc(S(C)(=O)=O)c1C(=O)C1CC1
4. CC(C)C(=O)c1c(C(F)(F)F)ccc(C(=O)Nc2nnnn2C)c1Cl
5. COc1c(C(=O)Nc2nnnn2C)ccc(C(F)(F)F)c1C(=O)C1CC1
6. CC(=O)c1c(I)ccc(C(=O)Nc2nnnn2C)c1Cl
7. CCC(=O)c1c(C(F)F)ccc(C(=O)Nc2nnnn2C)c1Cl

RESULT:
90%
80%
100%
100%
100%
100%
100%
